target: IL-17AA and IL-17RA (Homo sapiens, UniProt Q16552); construct: 10895-H02H (IL-17RA); experiment: Competitive inhibition of human IL-17AA and IL-17RA binding (HTRF); settings: recombinant IL-17AA (His-tag) and IL-17RA (hFc-tag); read-out: IC50 for Inhibiting IL-AA/IL-RA Binding
Sequence (Q16552 24-155): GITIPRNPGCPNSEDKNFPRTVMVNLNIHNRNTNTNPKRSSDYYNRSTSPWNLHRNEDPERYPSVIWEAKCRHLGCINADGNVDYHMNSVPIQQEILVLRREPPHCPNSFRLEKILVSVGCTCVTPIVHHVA
pIC50: −log10 of the molar value.
Mark fulfilled for reported pIC50 of 8 or greater; mark not fulfilled for anything smaller.

API: above_or_equal(metric=pIC50, cutoff=8) for item COCC(=O)N[C@@H](c1nncn1CC1CC1)[C@@H](C)c1ccc(NC(=O)[C@@H](NC(=O)C(F)(F)c2ccc(OC)nc2)C(C2CC2)C2CC2)c(F)c1 [Compound 7] fulfilled

Moving on to COCC(=O)N[C@@H](c1nncn1CC1CC1)[C@@H](C)c1ccc(NC(=O)[C@@H](NC(=O)OCc2cc(C(F)F)on2)C(C2CC2)C2CC2)c(F)c1 [Compound 32] fulfilled

Moving on to CCn1nccc1C(=O)N[C@H](C(=O)Nc1ccc([C@H](C)[C@@H](NC(=O)COC)c2ncnn2CC2CC2)cn1)C(C1CC1)C1CC1 [Compound 48] not fulfilled

Moving on to CCC(=O)N[C@@H](c1ncn(CC2CC2)n1)[C@@H](C)c1ccc(NC(=O)[C@@H](NC(=O)c2nonc2C)C(C2CC2)C2CC2)c(F)c1 [Compound 81] fulfilled

Moving on to [2H]C([2H])([2H])n1ccc(C(=O)N[C@H](C(=O)Nc2ccc([C@H](C)[C@@H](NC(=O)CC)c3ncnn3CC3CC3)cc2F)C(C2CC2)C2CC2)n1 [Compound 86] not fulfilled

Moving on to [2H]C([2H])([2H])OCC(=O)N[C@@H](c1ncnn1CC1CC1)[C@@H](C)c1ccc(NC(=O)[C@@H](NC(=O)c2nonc2C)C(C2CC2)C2CC2)c(F)c1 [Compound 58] fulfilled

Moving on to [2H]C([2H])([2H])n1nccc1C(=O)N[C@H](C(=O)Nc1ccc([C@H](C)[C@@H](NC(=O)CC)c2ncnn2CC2CC2)cc1F)C(C1CC1)C1CC1 [Compound 62] fulfilled

Moving on to [2H]C([2H])([2H])n1nccc1C(=O)N[C@H](C(=O)Nc1ccc([C@H](C)[C@@H](NC(=O)COC)c2ncnn2CC2CC2)cc1F)C(C1CC1)C1CC1 [Compound 35] fulfilled

Moving on to CCC(=O)N[C@@H](c1ncnn1CC1CC1)[C@@H](C)c1ccc(NC(=O)[C@@H](NC(=O)c2ccnn2C2CN(C)C2)C(C2CC2)C2CC2)c(F)c1 [Compound 73] not fulfilled

Moving on to CCC(=O)N[C@@H](c1ncnn1CC1CC1)[C@@H](C)c1ccc(NC(=O)[C@@H](NC(=O)c2nsnc2C)C(C2CC2)C2CC2)c(F)c1 [Compound 74] fulfilled

Moving on to CCn1nccc1C(=O)N[C@H](C(=O)Nc1ccc([C@H](C)[C@@H](NC(=O)COC)c2nncn2C)cc1F)C(C1CC1)C1CC1 [Compound 6] not fulfilled

Moving on to CCn1nccc1C(=O)N[C@H](C(=O)Nc1ccc([C@H](C)[C@@H](NC(=O)COC)c2nccnc2OC2CC2)cc1F)C(C1CC1)C1CC1 [Compound 27] not fulfilled

Moving on to CCC(=O)N[C@H](c1ncnn1CC1CC1)[C@@H](C)c1ccc(NC(=O)[C@@H](NC(=O)c2nonc2C)C(C2CC2)C2CC2)c(F)c1 [Compound 83] not fulfilled

Moving on to CCn1nccc1C(=O)N[C@H](C(=O)Nc1ccc([C@H](C)[C@@H](NC(=O)COC)c2ncnn2CC2CC2)cc1F)C1CCCCCC1 [Compound 42] fulfilled

Moving on to CCOCC(=O)N[C@@H](c1ncnn1CC1CC1)[C@@H](C)c1ccc(NC(=O)[C@@H](NC(=O)c2nonc2C)C(C2CC2)C2CC2)c(F)c1 [Compound 63] fulfilled

Moving on to CCC(=O)N[C@@H](c1nncn1CC1CC1)[C@@H](C)c1ccc(NC(=O)[C@@H](NC(=O)c2ccnn2CC)C(C2CC2)C2CC2)c(F)c1 [Compound 1] not fulfilled

Moving on to COCC(=O)N[C@@H](c1nncn1CC1CC1)[C@@H](C)c1ccc(NC(=O)[C@@H](NC(=O)COCC2CC2)C(C2CC2)C2CC2)c(F)c1 [Compound 15] not fulfilled

Moving on to CCn1nccc1C(=O)N[C@H](C(=O)Nc1ccc([C@H](C)[C@@H](NC(=O)COC)c2nc(C)nn2CC2CC2)cc1F)C(C1CC1)C1CC1 [Compound 25] not fulfilled

---

target: IL-17AA and IL-17RA (Homo sapiens); construct: 10895-H02H (IL-17RA); assay: Competitive inhibition of human IL-17AA and IL-17RA binding (HTRF); conditions: recombinant IL-17AA (His-tag) and IL-17RA (hFc-tag); read-out: IC50 for Inhibiting IL-AA/IL-RA Binding
PARAMETER: pIC50
Lab note — pIC50 values are minus log10 of concentrations in M.

For the record COCC(=O)N[C@@H](c1nncn1CC1CC1)[C@@H](C)c1ccc(NC(=O)[C@@H](NC(=O)C2(F)CC2)C(C2CC2)C2CC2)c(F)c1 , what value of pIC50 is listed for IL-17AA and IL-17RA (Homo sapiens)? 7.89

Moving on to CCc1nonc1C(=O)N[C@H](C(=O)Nc1ccc([C@H](C)[C@@H](NC(=O)COC)c2nncn2CC2CC2)cc1F)C(C1CC1)C1CC1 8.54

Moving on to CCn1nccc1C(=O)N[C@H](C(=O)Nc1ccc([C@H](C)[C@@H](NC(=O)N(C)C2CC2)c2nncn2CC2CC2)cc1F)C(C1CC1)C1CC1 8.66

Moving on to COCC(=O)N[C@@H](c1ncnn1CCN(C)C)[C@@H](C)c1ccc(NC(=O)[C@@H](NC(=O)c2nonc2C)C(C2CC2)C2CC2)c(F)c1 7.92

Moving on to Cc1nonc1C(=O)N[C@H](C(=O)Nc1ccc([C@H](C)[C@@H](NC(=O)COC(F)F)c2ncnn2CC2CC2)cc1F)C(C1CC1)C1CC1 9.05

Moving on to [2H]C([2H])([2H])OCC(=O)N[C@@H](c1ncnn1CC1CC1)[C@@H](C)c1ccc(NC(=O)[C@@H](NC(=O)c2ccnn2C([2H])([2H])[2H])C(C2CC2)C2CC2)c(F)c1 8.28

---

target: IL-17AA and IL-17RA (Homo sapiens, UniProt Q16552); construct: 10895-H02H (IL-17RA); assay: Competitive inhibition of human IL-17AA and IL-17RA binding (HTRF); conditions: recombinant IL-17AA (His-tag) and IL-17RA (hFc-tag); read-out: IC50 for Inhibiting IL-AA/IL-RA Binding
Record form. Attribute: log10(IC50). Fill in for each entry.
Field: value | Transform: log10 | Quantity: IC50 | Unit: nM

Sample CCc1nonc1C(=O)N[C@H](C(=O)Nc1ccc([C@H](C)[C@@H](NC(=O)COC)c2ncnn2CC2CC2)cc1F)C(C1CC1)C1CC1 [Compound 34] — what was its log10(IC50)? 0.41

Moving on to [2H]C([2H])([2H])OCC(=O)N[C@@H](c1ncnn1CC1CC1)[C@@H](C)c1ccc(NC(=O)[C@@H](NC(=O)c2ccnn2CC)C(C2CC2)C2CC2)c(F)c1 [Compound 68] 0.65

Moving on to Cc1nonc1C(=O)N[C@H](C(=O)Nc1ccc([C@H](C)[C@@H](NC(=O)CC#N)c2ncnn2CC2CC2)cc1F)C(C1CC1)C1CC1 [Compound 70] 0.53

Moving on to CCCn1cnc([C@H](NC(=O)COC)[C@@H](C)c2ccc(NC(=O)[C@@H](NC(=O)c3ccnn3CC)C(C3CC3)C3CC3)c(F)c2)n1 [Compound 30] 1.36

Moving on to CCn1nccc1C(=O)N[C@H](C(=O)Nc1ccc([C@H](C)[C@@H](NC(=O)COC)c2ncnn2CC2CC2)cc1OC)C(C1CC1)C1CC1 [Compound 45] 2.18

Moving on to CCn1nccc1C(=O)N[C@H](C(=O)Nc1ccc([C@H](C)[C@@H](NC(C)=O)c2nncn2CC2CC2)cc1F)C(C1CC1)C1CC1 [Compound 2] 1.08

Moving on to CCn1nccc1C(=O)N[C@H](C(=O)Nc1ncc([C@H](C)[C@@H](NC(=O)COC)c2ncnn2CC2CC2)cc1F)C(C1CC1)C1CC1 [Compound 46] 1.46

Moving on to CCC(=O)N[C@@H](c1ncnn1CC1CC1)[C@@H](C)c1ccc(NC(=O)[C@@H](NC(=O)c2nonc2C)C(C2CC2)C2CC2)c(F)c1 [Compound 66] 0.04

Moving on to COCC(=O)N[C@@H](c1ncnn1CC1CC1)[C@@H](C)c1ccc(NC(=O)[C@@H](NC(=O)c2ccnn2C(C)C)C(C2CC2)C2CC2)c(F)c1 [Compound 33] 0.90

Moving on to Cc1nonc1C(=O)N[C@H](C(=O)Nc1ccc([C@H](C)[C@@H](NC(=O)COC2CNC2)c2ncnn2CC2CC2)cc1F)C(C1CC1)C1CC1 [Compound 55] 1.60

Moving on to Cc1nonc1C(=O)N[C@H](C(=O)Nc1ccc([C@H](C)[C@@H](NC(=O)CO)c2ncnn2CC2CC2)cc1F)C(C1CC1)C1CC1 [Compound 57] 0.83

Moving on to CC(=O)N[C@@H](c1nncn1CC1CC1)[C@@H](C)c1ccc(NC(=O)[C@@H](NC(=O)c2ccnn2C(C)C)C(C2CC2)C2CC2)c(F)c1 [Compound 22] 1.11

Moving on to CCn1nccc1C(=O)N[C@H](C(=O)Nc1ccc([C@H](C)[C@@H](NC(=O)COC)c2nnc(C3CCN3C)s2)cc1F)C(C1CC1)C1CC1 (some centres unmarked) [Compound 59] 2.37

Moving on to [2H]C([2H])([2H])n1nccc1C(=O)N[C@H](C(=O)Nc1ccc([C@H](C)[C@@H](NC(=O)CO)c2ncnn2CC2CC2)cc1F)C(C1CC1)C1CC1 [Compound 69] 1.11

Moving on to COCC(=O)N[C@@H](c1ncnn1CC1CC1)[C@@H](C)c1ccc(NC(=O)[C@@H](NC(=O)c2nonc2C)C(C2CC2)C2CC2)c(F)c1 [Compound 39] 0.34

Moving on to COCC(=O)N[C@@H](c1nnnn1CC1CC1)[C@@H](C)c1ccc(NC(=O)[C@@H](NC(=O)c2nonc2C)C(C2CC2)C2CC2)c(F)c1 [Compound 54] 0.48

Moving on to CCn1nccc1C(=O)N[C@H](C(=O)Nc1ccc([C@H](C)[C@@H](NC(=O)COC)c2ncccc2CC2CC2)cc1F)C(C1CC1)C1CC1 [Compound 28] 0.89

Moving on to CCC(=O)N[C@@H](c1ncnn1CC1CC1)[C@@H](C)c1ccc(NC(=O)[C@@H](NC(=O)c2ccnn2CC)C2CCC(=C(F)F)CC2)c(F)c1 (some centres unmarked) [Compound 77] 0.75

Moving on to CCc1nonc1C(=O)N[C@H](C(=O)Nc1ccc([C@H](C)[C@@H](NC(=O)COC)c2nnnn2CC2CC2)cc1F)C(C1CC1)C1CC1 [Compound 29] -0.05

Moving on to CCc1nonc1C(=O)N[C@H](C(=O)Nc1ccc([C@H](C)[C@@H](NC(=O)[C@H](C)OC)c2nncn2CC2CC2)cc1F)C(C1CC1)C1CC1 [Compound 26] -0.10

Moving on to CCC(=O)N[C@@H](c1ncn(CCNC2CC2)n1)[C@@H](C)c1ccc(NC(=O)[C@@H](NC(=O)c2nonc2C)C(C2CC2)C2CC2)c(F)c1 [Compound 80] 1.26

Moving on to CCn1nccc1C(=O)N[C@H](C(=O)Nc1ccc([C@H](C)[C@@H](NC(=O)COC)c2nnc(C)s2)cc1F)C(C1CC1)C1CC1 [Compound 17] 2.65

Moving on to Cc1nonc1C(=O)N[C@H](C(=O)Nc1ccc([C@H](C)[C@@H](NC(=O)COC2CC2)c2ncnn2CC2CC2)cc1F)C(C1CC1)C1CC1 [Compound 60] 0.23
